Data provenance: the supplement of paper PMC6555819

test system: LXRb homodimer (NR concentration 270 nM); assay: PBM binding z-score (relative to random genomic background probes); higher = stronger binding; sequences stand for … in GC…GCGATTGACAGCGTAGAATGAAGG
Label yes for high-side PBM binding z-score (at or above 0.5) and no for low-side PBM binding z-score (below it).

// known answers, use as guide
ATCGAAAGGTCGAGTTGAGTATAGAGAAAGGGAA | yes
CGAGCTAGGTCACCAGGACAGTGAAGAGGTTGGA | no
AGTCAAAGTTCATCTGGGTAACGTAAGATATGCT | yes
CAAAGTAGGTCAAGGTCAAAGTCGGTTTGTGCCA | yes
CCTTACGGGTCAAGGTTATCGCACGGGTGGTACG | no

Entry CCTAGCAGGCCACGGTCACTCAAGCATTTCGCTT : is its PBM binding z-score no less than 0.5?
no

# iterate: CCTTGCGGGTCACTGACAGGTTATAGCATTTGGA
no

# iterate: ATACCAAGGTGATCGTGAGTTCGTTGATACTAAC
no

# iterate: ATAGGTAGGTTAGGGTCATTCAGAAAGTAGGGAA
yes
